# EXPERIMENTAL TARGET: Prothrombin (Homo sapiens, UniProt P00734)
# EXPERIMENTAL DETAILS: Thrombin 1536 HTS Dose Response Confirmation. [Related pubchem assays: 1046 (Thrombin 1536 HTS; hits were confirmed in this assay)]
# Format: functional
Active and inactive are the calls of the source.
Known IC50 of a selection of compounds

Examples with answers:
O=C(COC(=O)Cn1cnc2ccccc2c1=O)Nc1cc(Cl)ccc1[N+](=O)[O-] : 3.35 µM (active)
Cc1ccc(C)c(SCC(=O)OCC(=O)Nc2ccc(S(=O)(=O)N3CCOCC3)cc2)c1 : 5.72 µM (active)

Turning to the following compound.
Query string: Entry under review: "CN(C)C(=O)CSc1nnc([C@@H](N)Cc2ccccc2)o1" . Reported IC50?
Result string: > 50 µM (not active)

###

# EXPERIMENTAL TARGET: Paired box protein Pax-8 (Homo sapiens)
# Sequence (Q06710 whole entry): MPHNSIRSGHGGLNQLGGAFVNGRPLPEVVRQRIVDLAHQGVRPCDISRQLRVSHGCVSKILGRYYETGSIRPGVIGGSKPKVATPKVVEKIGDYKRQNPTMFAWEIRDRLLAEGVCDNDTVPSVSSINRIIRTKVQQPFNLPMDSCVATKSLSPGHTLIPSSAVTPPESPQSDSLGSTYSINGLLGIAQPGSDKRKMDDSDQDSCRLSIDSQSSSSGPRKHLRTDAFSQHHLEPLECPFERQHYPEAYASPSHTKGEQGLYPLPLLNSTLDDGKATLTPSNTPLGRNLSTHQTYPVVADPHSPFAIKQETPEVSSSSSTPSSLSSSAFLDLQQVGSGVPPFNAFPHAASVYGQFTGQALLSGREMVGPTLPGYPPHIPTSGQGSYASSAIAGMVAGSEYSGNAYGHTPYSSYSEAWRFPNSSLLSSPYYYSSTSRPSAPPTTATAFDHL
# EXPERIMENTAL DETAILS: inhibitors of PAX8-driven TPO luciferase reporter, dose response, RMG-I cells, cherry-pick (AID 687027);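 also: luciferase reporter driven by Pax8 target thyroperoxidase promoter measured by SteadyGlo luminescence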
# Assay type: functional, cell-based
Calls of active or inactive are those of the source.
Known AC50 of a selection of molecules

Examples with answers:
CC(=O)c1cc(NC(=O)c2cccc(C(F)(F)F)c2)c(=O)oc1C : 15.8 µM (active)
Oc1c(Cl)cc(Cl)c(Cl)c1Cc1c(O)c(Cl)cc(Cl)c1Cl : 3.3 µM (active)
Cc1nc(-c2ccc(NC(=O)c3ccco3)cc2)cs1 : 8.26 µM (active)
Cc1ccc(NC(=O)/C=C/c2ccc([N+](=O)[O-])s2)c(C)c1 : 3.16 µM (active)
CC(C)CN1CCN(C(=O)COC(=O)c2ccc(S(C)(=O)=O)c([N+](=O)[O-])c2)CC1 : 13 µM (active)
C=CC(=O)N1C/C(=C/c2ccc(F)cc2)C(=O)/C(=C\c2ccc(F)cc2)C1 : 2.36 µM (active)
CC(OC(=O)c1ccc(S(C)(=O)=O)c([N+](=O)[O-])c1)C(=O)NC1C2CC3CC(C2)CC1C3 (stereo not drawn) : 5.88 µM (active)

Turning to the following molecule.
Query string: Entry under review: "C[C@H]1CCCCO[C@H](CN(C)Cc2ccc(Cl)c(Cl)c2)[C@@H](C)CN([C@@H](C)CO)C(=O)c2cc(NC(=O)Nc3ccc(C(F)(F)F)cc3)ccc2O1" . Reported AC50?
Result string: 9.26 µM (active)

###

# EXPERIMENTAL TARGET: SUMO-activating enzyme (Homo sapiens, UniProt Q9UBT2)
# Sequence (Q9UBE0 whole entry): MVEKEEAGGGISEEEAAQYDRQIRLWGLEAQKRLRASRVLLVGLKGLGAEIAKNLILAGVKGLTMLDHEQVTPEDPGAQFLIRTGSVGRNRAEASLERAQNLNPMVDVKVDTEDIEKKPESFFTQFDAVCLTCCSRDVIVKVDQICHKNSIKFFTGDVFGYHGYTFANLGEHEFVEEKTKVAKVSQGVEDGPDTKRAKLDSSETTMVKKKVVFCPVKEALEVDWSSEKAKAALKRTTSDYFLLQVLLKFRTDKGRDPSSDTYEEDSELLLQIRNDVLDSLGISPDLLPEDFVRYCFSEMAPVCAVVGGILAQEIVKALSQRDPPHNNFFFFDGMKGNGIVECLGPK
# Sequence (Q9UBT2 whole entry): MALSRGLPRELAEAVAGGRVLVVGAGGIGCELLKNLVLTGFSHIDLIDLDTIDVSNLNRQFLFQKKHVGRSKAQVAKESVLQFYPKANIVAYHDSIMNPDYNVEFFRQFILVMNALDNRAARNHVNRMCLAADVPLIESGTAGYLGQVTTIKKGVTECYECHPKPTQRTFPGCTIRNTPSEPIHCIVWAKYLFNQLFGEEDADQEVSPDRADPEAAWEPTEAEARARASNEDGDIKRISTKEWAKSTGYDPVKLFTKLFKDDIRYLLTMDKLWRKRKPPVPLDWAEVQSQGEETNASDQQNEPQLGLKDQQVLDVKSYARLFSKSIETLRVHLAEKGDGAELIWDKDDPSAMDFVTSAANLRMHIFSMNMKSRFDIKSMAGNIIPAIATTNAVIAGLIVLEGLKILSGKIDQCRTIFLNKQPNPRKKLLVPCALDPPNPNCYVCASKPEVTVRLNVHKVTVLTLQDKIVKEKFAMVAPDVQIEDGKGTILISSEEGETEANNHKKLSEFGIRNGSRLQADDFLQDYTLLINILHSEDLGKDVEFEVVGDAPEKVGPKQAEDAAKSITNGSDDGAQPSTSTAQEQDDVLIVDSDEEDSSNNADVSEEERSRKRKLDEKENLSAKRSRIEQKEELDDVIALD
# EXPERIMENTAL DETAILS: SUMOylation inhibitor hit validation, confirmation, SUMOylation inhibitor project, biochemical, AlphaScreen (AID 2018)
# Assay type: functional
Activity calls are given as the source filed them.
PROPERTY MEASURED: IC50

COc1cccc(/C=C2/SC(=S)N(CC(=O)NNC(=O)c3ccccc3O)C2=O)c1 : 29.4 µM (active)
O=C(Nc1ccc2oc(-c3cccc4ccccc34)nc2c1)c1nnc[nH]1 : 3.45 µM (active)
O=C(N/N=C/c1ccc(Cl)cc1)c1nc(O)c2cc([N+](=O)[O-])ccc2n1 : 21.5 µM (active)

Turning to the following compound.
Query string: Entry under review: "N#Cc1c(N2CCCCC2)nc(N)c2c(N)nc(SCC(=O)O)cc12" . Reported IC50?
Result string: 0.86 µM (active)

###

Known AC50 of a selection of compounds
# System: INS1
# EXPERIMENTAL DETAILS: beta cell apoptosis inhibitors, cytokine rescue, dose response, luminescence, retest (AID 449756);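 also: cell death triggered by IL-1 beta plus TNF-alpha plus IFN-gamma mixture; protective hits raise ATP signal compared with cytokine alone wells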
# Assay type: functional, cell-based
# CONDITION SUMMARY: Rattus norvegicus
Calls of active or inactive are those of the source.

Examples with answers:
S=C(c1cn(CCOc2cccc3ccccc23)c2ccccc12)N1CCCC1 : 4.3 µM (active)
Cc1cc(C)n(-c2nc3ccccc3c(=O)n2OCC#N)n1 : 4.13 µM (active)
O=C(N/N=C\c1cc(Br)ccc1O)c1ccc(S(=O)(=O)N2CCCCC2)cc1 : 0.809 µM (active)
Oc1ccc(COCc2ccccc2)c2cccnc12 : 1.77 µM (active)

Turning to the following compound.
Query string: Write down the reported AC50 of "Brc1ccc(CN2CCN(Cc3c[nH]c4ccccc34)CC2)cc1" , test system: INS1.
Result string: 6.68 µM (active)

###

# EXPERIMENTAL TARGET: FAD-linked sulfhydryl oxidase ALR (Homo sapiens)
# Sequence (P55789 whole entry): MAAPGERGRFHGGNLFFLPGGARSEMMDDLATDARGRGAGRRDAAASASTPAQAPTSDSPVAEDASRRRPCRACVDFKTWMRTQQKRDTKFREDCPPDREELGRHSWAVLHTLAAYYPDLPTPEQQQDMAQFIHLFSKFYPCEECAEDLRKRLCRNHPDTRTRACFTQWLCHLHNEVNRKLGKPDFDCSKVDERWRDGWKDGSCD
# EXPERIMENTAL DETAILS: inhibitors of human ALR sulfhydryl oxidase, dose response, biochemical, H2O2 detection, luminescence, cherry-pick (AID 493248)
Active and inactive are the calls of the source.
PROPERTY MEASURED: AC50

CC(C)c1ccc(NC2CCCN(C(=O)c3cnc4ccccn4c3=O)C2)cc1 (centres undefined) : 8.31 µM (active)
O=C(NCC(=O)N1CCN(c2ccccc2)CC1)c1cccs1 : 21.4 µM (active)
CCN(CC)c1ccc(NC(=O)c2c(OC)cccc2OC)c(C)c1 : 0.84 µM (active)
COc1cc(/C=N/N2CCCCC2)cc([N+](=O)[O-])c1O : 2.71 µM (active)

Query string: Entry under review: "O=c1oc2cc(Br)ccc2n1CSC1=NCCS1" . Reported AC50?
Result string: 0.033 µM (active)

Query string: Entry under review: "Cc1cc(C(=O)NNC(=O)CCN2CCN(c3ccccc3)CC2)c2ccccc2n1" . Reported AC50?
Result string: 5.94 µM (active)

Query string: Entry under review: "Cc1ccc(/C=N/n2c(S)nnc2-c2cccnc2)s1" . Reported AC50?
Result string: 2.34 µM (active)

Query string: Entry under review: "Oc1ccc(-c2onc3ccc(Cl)cc23)cc1" . Reported AC50?
Result string: 6.97 µM (active)

Query string: Entry under review: "Sc1nnc(/C=C/c2ccccc2)o1" . Reported AC50?
Result string: 29.9 µM (active)

###

# EXPERIMENTAL TARGET: Genome polyprotein (dengue virus type 2)
# EXPERIMENTAL DETAILS: Dengue-2 NS5 methyltransferase inhibitors, primary screen, biochemical, confirmation dose response (AID 588689)
# Type: functional
The source made the active and inactive calls.
Known IC50 of a selection of molecules

Examples with answers:
CC1=NN(c2ccccc2)C(=O)/C1=C/c1cccc(C)c1 : 50.5 µM (active)
CCOc1ccc(N2C(=O)NC(=O)/C(=C\c3ccccc3[N+](=O)[O-])C2=O)cc1 : 30.5 µM (active)
CCc1ccc(S(=O)(=O)Nc2cc(SCC(=O)O)c(O)c3ccccc23)cc1 : 9.53 µM (active)
Cc1ccc(S(=O)(=O)NN2C(=O)/C(=C/c3cccs3)SC2=S)cc1 : 35.3 µM (active)
Oc1ccc2ccccc2c1/C=N\C12CN3CCN(CN(C3)C1)C2 : 53.9 µM (active)

Query string: Entry under review: [O-][S+](c1ccccc1O)[S+]([O-])c1ccccc1O (stereo unspecified) . Reported IC50?
Result string: 68 µM (active)

###

# EXPERIMENTAL TARGET: Leucine aminopeptidase (Plasmodium falciparum 3D7)
# Sequence (Q8IL11 whole entry): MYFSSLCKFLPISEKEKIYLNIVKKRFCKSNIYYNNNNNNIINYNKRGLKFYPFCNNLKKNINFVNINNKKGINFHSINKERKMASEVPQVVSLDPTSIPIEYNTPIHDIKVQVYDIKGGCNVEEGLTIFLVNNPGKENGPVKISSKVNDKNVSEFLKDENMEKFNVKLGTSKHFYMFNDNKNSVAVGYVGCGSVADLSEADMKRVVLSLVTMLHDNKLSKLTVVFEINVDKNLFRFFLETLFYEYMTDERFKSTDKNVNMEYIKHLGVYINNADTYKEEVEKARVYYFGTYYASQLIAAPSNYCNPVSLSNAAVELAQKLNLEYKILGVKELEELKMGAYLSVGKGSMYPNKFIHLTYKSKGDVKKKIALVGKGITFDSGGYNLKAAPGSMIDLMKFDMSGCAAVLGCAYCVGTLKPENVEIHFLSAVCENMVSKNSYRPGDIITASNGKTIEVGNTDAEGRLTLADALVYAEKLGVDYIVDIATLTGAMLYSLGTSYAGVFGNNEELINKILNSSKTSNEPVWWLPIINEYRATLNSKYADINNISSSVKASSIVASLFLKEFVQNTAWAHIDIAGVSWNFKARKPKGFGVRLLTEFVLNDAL
# EXPERIMENTAL DETAILS: P. falciparum M17LAP inhibitors, primary screen, biochemical, fluorogenic H-Leu-NHMec substrate, 1536-well (AID 1619)
# Format: functional
Active and inactive are the calls of the source.
Known IC50 of a selection of molecules

Examples with answers:
CCc1ccc(-c2nn(Cc3ccccc3)cc2/C=C/C(=O)O)cc1 : 31.5 µM (active)
O=P(NS(=O)(=O)c1ccc(Br)cc1)(Oc1ccccc1)Oc1ccccc1 : 30.1 µM (active)

Turning to the following molecule.
Query string: Entry under review: "NC(=O)c1c(Nc2nc3c(F)cccc3s2)sc2c1CCCC2" . Reported IC50?
Result string: 81.8 µM (active)

###

# EXPERIMENTAL TARGET: Peroxisome proliferator-activated receptor gamma/Nuclear receptor coactivator 1 (Homo sapiens, UniProt P37231)
# Sequence (P37231 whole entry): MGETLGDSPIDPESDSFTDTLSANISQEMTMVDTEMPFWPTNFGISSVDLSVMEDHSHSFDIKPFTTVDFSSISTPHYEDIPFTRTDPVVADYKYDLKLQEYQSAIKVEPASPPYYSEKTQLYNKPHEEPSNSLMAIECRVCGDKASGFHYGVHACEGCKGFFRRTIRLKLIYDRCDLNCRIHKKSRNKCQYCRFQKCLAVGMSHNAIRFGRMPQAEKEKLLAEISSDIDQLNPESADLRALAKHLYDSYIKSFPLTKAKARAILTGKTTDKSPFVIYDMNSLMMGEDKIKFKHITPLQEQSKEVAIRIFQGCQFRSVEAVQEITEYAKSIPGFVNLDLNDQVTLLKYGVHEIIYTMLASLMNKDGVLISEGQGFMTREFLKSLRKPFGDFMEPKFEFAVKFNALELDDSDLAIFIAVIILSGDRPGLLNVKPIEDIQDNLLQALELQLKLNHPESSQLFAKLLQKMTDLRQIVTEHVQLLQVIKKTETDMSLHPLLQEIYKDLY
# Sequence (Q15788 whole entry, further chain): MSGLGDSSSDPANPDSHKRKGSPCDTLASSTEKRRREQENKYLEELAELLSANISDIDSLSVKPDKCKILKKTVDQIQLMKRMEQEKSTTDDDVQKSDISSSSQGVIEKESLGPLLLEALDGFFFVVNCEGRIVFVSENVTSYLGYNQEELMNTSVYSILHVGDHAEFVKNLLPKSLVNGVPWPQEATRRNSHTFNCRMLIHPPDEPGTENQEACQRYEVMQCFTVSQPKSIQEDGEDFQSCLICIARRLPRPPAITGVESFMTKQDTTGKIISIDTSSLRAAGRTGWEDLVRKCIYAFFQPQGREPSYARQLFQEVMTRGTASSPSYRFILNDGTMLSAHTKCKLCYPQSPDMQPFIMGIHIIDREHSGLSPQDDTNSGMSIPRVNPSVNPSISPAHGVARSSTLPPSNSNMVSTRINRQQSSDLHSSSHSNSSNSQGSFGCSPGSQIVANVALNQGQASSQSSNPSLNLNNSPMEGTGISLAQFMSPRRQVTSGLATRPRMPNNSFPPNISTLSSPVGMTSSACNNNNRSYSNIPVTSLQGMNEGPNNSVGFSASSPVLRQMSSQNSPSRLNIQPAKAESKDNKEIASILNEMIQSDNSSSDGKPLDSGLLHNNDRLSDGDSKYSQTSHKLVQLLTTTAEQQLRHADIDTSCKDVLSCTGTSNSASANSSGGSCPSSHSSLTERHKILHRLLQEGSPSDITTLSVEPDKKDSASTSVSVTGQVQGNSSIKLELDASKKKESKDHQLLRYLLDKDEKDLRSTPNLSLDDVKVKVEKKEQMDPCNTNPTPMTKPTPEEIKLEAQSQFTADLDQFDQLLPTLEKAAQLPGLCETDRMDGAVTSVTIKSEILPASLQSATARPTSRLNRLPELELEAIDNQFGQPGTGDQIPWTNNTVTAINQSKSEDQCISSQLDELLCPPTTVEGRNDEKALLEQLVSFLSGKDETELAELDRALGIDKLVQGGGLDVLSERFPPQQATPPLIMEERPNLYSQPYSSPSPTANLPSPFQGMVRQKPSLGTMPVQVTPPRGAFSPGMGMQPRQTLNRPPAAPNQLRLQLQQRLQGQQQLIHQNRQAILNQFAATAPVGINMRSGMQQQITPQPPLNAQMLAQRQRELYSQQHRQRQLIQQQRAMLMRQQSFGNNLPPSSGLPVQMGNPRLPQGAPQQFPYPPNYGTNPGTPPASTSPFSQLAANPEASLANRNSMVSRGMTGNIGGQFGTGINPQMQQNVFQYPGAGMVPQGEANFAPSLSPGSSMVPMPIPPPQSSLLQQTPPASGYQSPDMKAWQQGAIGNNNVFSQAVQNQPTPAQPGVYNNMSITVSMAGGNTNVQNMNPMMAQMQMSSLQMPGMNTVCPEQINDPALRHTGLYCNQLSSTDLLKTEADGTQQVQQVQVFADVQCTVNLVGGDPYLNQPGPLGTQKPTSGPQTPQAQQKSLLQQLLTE
# EXPERIMENTAL DETAILS: TR-FRET dose response biochemical High Throughput Screening assay for agonists of the steroid receptor coactivator 1 (SRC-1) recruitment by the peroxisome proliferator-activated receptor gamma (PPAR gamma): non-selective agonists. [Related pubchem assays (depositor defined):AID1300, AID1808, AID504735, AID631]
# Type: protein assay
Activity calls are given as the source filed them.
PROPERTY MEASURED: EC50

Examples with answers:
COc1cc(-n2c(=S)[nH]c3ccc(C)cc3c2=O)c(Cl)cc1Cl : > 79.4 µM (inactive)
CSc1oc(-c2ccccc2)nc1S(=O)(=O)c1ccc(C)cc1 : > 79.4 µM (inactive)

Query string: Entry under review: "C=CCSC1=Nc2cc(OC)c(OC)cc2C2=NC(=O)CN12" . Reported EC50?
Result string: > 79.4 µM (inactive)

###

The following compounds have recorded AC50 on Cytochrome P450 2D6 (Homo sapiens, UniProt P10635).

CN1[C@@H]2CC[C@H]1CC(O[C@@H](c1ccccc1)c1ccccc1N)C2 (stereo not given in full) : 25.1 µM (inconclusive)

Query string: Entry under review: "O=C(c1ccco1)N1CCC[C@@]2(CCN(c3ncccn3)C2)C1" . Reported AC50?
Result string: 25.1 µM (inconclusive)

Query string: Entry under review: CC(C)(C)NC(=O)C(Cc1ccccc1)NS(=O)(=O)c1ccc2c(c1)CCC(=O)N2 (stereo not given) . Reported AC50?
Result string: 12.6 µM (inconclusive)

Query string: Entry under review: "C=CCN1CCc2cccc3c2[C@@H]1Cc1ccc(O)c(O)c1-3" . Reported AC50?
Result string: 31.6 µM (inconclusive)

Query string: Entry under review: CC(NC(=O)CCSc1nc(-c2ccco2)cc(C(F)(F)F)n1)c1ccccc1 (stereo not given) . Reported AC50?
Result string: 15.8 µM (inconclusive)
